molecular target: HLA-A*01:01; assay: IEDB peptide-MHC binding, purified MHC/direct/fluorescence; filed as Kd, often an IC50 or EC50 that approximates it; bounds were set here for any values at or beyond the usual limits of such assays; conditions: source organism: Influenza A virus (A/Swine/Italy/25823/94(H3N2))
pKd: −log10 of the molar value.
readout.type: pKd

Q. What value of pKd has been recorded for this entry: SFSFGGFTF
A. ≤ 4.70

###

target: HLA-B*08:03; experiment: IEDB peptide-MHC binding, purified MHC/direct/fluorescence; filed as Kd, often an IC50 or EC50 that approximates it; bounds were set here for any values at or beyond the usual limits of such assays; settings: source organism: Mycobacterium tuberculosis str. Haarlem
readout.type: Kd

Q. Lab note: need Kd for ALFDRPAFK on HLA-B*08:03, anyone have it?
A. ≥ 20 µM

###

biological target: HLA-A*01:01; assay: IEDB peptide-MHC binding, purified MHC/competitive/radioactivity; filed as Kd, often an IC50 or EC50 that approximates it; bounds were set here for any values at or beyond the usual limits of such assays; conditions: source organism: Homo sapiens
readout.type: Kd (nM)
One number for each entry, in nM.

Q. Lab note: need Kd for FLGGNEVGKTY on HLA-A*01:01, anyone have it?
A. 198

###

target: HLA-B*58:01; experiment: IEDB peptide-MHC binding, purified MHC/direct/fluorescence; filed as Kd, often an IC50 or EC50 that approximates it; bounds were set here for any values at or beyond the usual limits of such assays; conditions: source organism: Entamoeba histolytica HM-1:IMSS
pKd: −log10 of the molar value.
readout.type: pKd

Q. What value of pKd has been recorded for this entry: ETMKPAAMV
A. ≤ 4.70

###

target: HLA-A*02:12; assay: IEDB peptide-MHC binding, purified MHC/direct/fluorescence; filed as Kd, often an IC50 or EC50 that approximates it; bounds were set here for any values at or beyond the usual limits of such assays; conditions: source organism: Ebola virus Yambio0403
readout.type: Kd

Q. What value of Kd has been recorded for this entry: FRYEFTAPF
A. ≥ 20 µM

###

molecular target: HLA-B*18:01; assay: IEDB peptide-MHC binding, purified MHC/direct/fluorescence; filed as Kd, often an IC50 or EC50 that approximates it; bounds were set here for any values at or beyond the usual limits of such assays; conditions: source organism: Cryptosporidium parvum Iowa II
pKd: −log10 of the molar value.
Could you please report measured pKd for the items listed next?

DHIPIINTL	≤ 4.70

Q. What value of pKd has been recorded for this entry: ILTRLALFF
A. ≤ 4.70

###

biological target: HLA-B*45:06; experiment: IEDB peptide-MHC binding, purified MHC/competitive/fluorescence; filed as Kd, often an IC50 or EC50 that approximates it; bounds were set here for any values at or beyond the usual limits of such assays; details: source organism: dengue virus type 1
readout.type: Kd

Q. What value of Kd has been recorded for this entry: SEMGANFRA
A. ≥ 5 µM

###

target: HLA-A*26:01; experiment: IEDB peptide-MHC binding, purified MHC/direct/fluorescence; filed as Kd, often an IC50 or EC50 that approximates it; bounds were set here for any values at or beyond the usual limits of such assays; conditions: source organism: Ravn virus - Ravn, Kenya, 1987
pKd: −log10 of the molar value.
readout.type: pKd

Q. What value of pKd has been recorded for this entry: CVFKFIVAK
A. ≤ 4.70

###

biological target: HLA-B*44:02; assay: IEDB peptide-MHC binding, purified MHC/direct/fluorescence; filed as Kd, often an IC50 or EC50 that approximates it; bounds were set here for any values at or beyond the usual limits of such assays; conditions: source organism: Influenza A virus (A/egret/Hong Kong/757.3/2002(H5N1))
readout.type: Kd

Q. What value of Kd has been recorded for this entry: HEGYEEFTM
A. ≥ 20 µM

###

molecular target: HLA-A*02:16; assay: IEDB peptide-MHC binding, purified MHC/direct/fluorescence; filed as Kd, often an IC50 or EC50 that approximates it; bounds were set here for any values at or beyond the usual limits of such assays; conditions: source organism: Orthohantavirus tulaense
readout.type: Kd

Q. What value of Kd has been recorded for this entry: SLMSRVVYK
A. ≥ 20 µM

###

biological target: HLA-A*02:06; assay: IEDB peptide-MHC binding, purified MHC/competitive/radioactivity; filed as Kd, often an IC50 or EC50 that approximates it; bounds were set here for any values at or beyond the usual limits of such assays; settings: source organism: SARS coronavirus Tor2
# if measured Kd < 70 nM: yes  # else: no

LAFVVFLLV	no
AIMTRCLAV	yes
IVAALVFLI	yes

Continue with the next sequence.
Q. Is the reported Kd for FLAFVVFLLV strictly below 70 nM?
A. no

###

biological target: HLA-A*24:03; test: IEDB peptide-MHC binding, purified MHC/direct/fluorescence; filed as Kd, often an IC50 or EC50 that approximates it; bounds were set here for any values at or beyond the usual limits of such assays; settings: source organism: Cryptosporidium parvum Iowa II
pKd: −log10 of the molar value.
readout.type: pKd

ILTRLALFF	≤ 4.70

Query sequence follows.
Q. What value of pKd has been recorded for this entry: DHIPIINTL
A. ≤ 4.70

###

target: HLA-B*15:01; experiment: IEDB peptide-MHC binding, purified MHC/direct/fluorescence; filed as Kd, often an IC50 or EC50 that approximates it; bounds were set here for any values at or beyond the usual limits of such assays; conditions: source organism: Mycobacterium tuberculosis str. Haarlem
readout.type: Kd

Q. What value of Kd has been recorded for this entry: WASGVPAAT
A. ≥ 20 µM

###

biological target: HLA-B*39:01; assay: IEDB peptide-MHC binding, purified MHC/competitive/fluorescence; filed as Kd, often an IC50 or EC50 that approximates it; bounds were set here for any values at or beyond the usual limits of such assays; details: source organism: Reston ebolavirus - Reston (1989)
pKd: −log10 of the molar value.
readout.type: pKd

Q. Lab note: need pKd for QLSLRMLSL on HLA-B*39:01, anyone have it?
A. ≤ 4.70

###

biological target: HLA-B*15:01; test: IEDB peptide-MHC binding, purified MHC/direct/fluorescence; filed as Kd, often an IC50 or EC50 that approximates it; bounds were set here for any values at or beyond the usual limits of such assays; conditions: source organism: Camelpox virus CMS
readout.type: Kd

Q. What value of Kd has been recorded for this entry: VSEKYTDMY
A. ≥ 20 µM

###

target: HLA-B*44:03; experiment: IEDB peptide-MHC binding, purified MHC/competitive/fluorescence; bounds were set here for any values at or beyond the usual limits of such assays; conditions: source organism: Homo sapiens
Could you please report measured IC50 for the items listed next?

YPDPVIKV	≥ 20 µM

Q. What value of IC50 has been recorded for this entry: SLMASSPTSI
A. ≥ 20 µM

###

target: HLA-B*40:02; assay: IEDB peptide-MHC binding, purified MHC/competitive/radioactivity; filed as Kd, often an IC50 or EC50 that approximates it; bounds were set here for any values at or beyond the usual limits of such assays; conditions: source organism: Mammarenavirus whitewaterense
readout.type: pKd
Answers are plain numbers, as −log10 of the molar value.

Q. What value of pKd has been recorded for this entry: LEITDVTTL
A. 7.10

###

target: HLA-A*31:01; experiment: IEDB peptide-MHC binding, purified MHC/competitive/fluorescence; filed as Kd, often an IC50 or EC50 that approximates it; bounds were set here for any values at or beyond the usual limits of such assays; details: source organism: Yersinia pestis Nepal516
readout.type: Kd
Record the result as a number with its unit.

Q. What value of Kd has been recorded for this entry: KVCRSPAQK
A. 1.64 µM

###

target: HLA-A*31:01; assay: IEDB peptide-MHC binding, purified MHC/competitive/radioactivity; filed as Kd, often an IC50 or EC50 that approximates it; bounds were set here for any values at or beyond the usual limits of such assays; settings: source organism: SARS coronavirus Tor2
# if measured Kd < 0.8 µM: 1.0  # else: 0.0

Completed entries (count: 5):
VTYTEIEPK	0.0
RLLACLCKHK	1.0
RFNVAITRAK	1.0
LTRNPAWRK	0.0
SSSLTSLLK	0.0

Q. Is the reported Kd for VQIGEYTFEK strictly below 0.8 µM?
A. 0.0

Q. Moving on to the next sequence: GTSWFITQR
A. 1.0

Q. Moving on to the next sequence: YLCGFIKQK
A. 0.0

Q. Moving on to the next sequence: VVYRGTTTY
A. 0.0

Q. Moving on to the next sequence: KSAGFPFNK
A. 1.0

Q. Moving on to the next sequence: HQNSKKTTK
A. 0.0

Q. Moving on to the next sequence: SFNHVLKRK
A. 1.0

###

target: HLA-B*40:02; experiment: IEDB peptide-MHC binding, purified MHC/competitive/radioactivity; filed as Kd, often an IC50 or EC50 that approximates it; bounds were set here for any values at or beyond the usual limits of such assays; conditions: source organism: Mammarenavirus juninense
pKd: −log10 of the molar value.
readout.type: pKd

Q. Lab note: need pKd for PDSCLNGKL on HLA-B*40:02, anyone have it?
A. ≤ 4.11
